# experiment-notes: TROY pathway blockers in reporter cells – Q293 LMP1-TROYcd cells, NF-kB luciferase, uHTS, primary screen (AID 1347056)
# reported-conditions: 4 h, at 10 µM
In all, about 360,000 compounds went through this assay and about 3,600 (1%) were called active.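 How the source made its calls: active means compounds whose plate-normalised and pattern-corrected inhibition of the luciferase reporter signal at the single screening dose is 50% or more; inactive means the rest.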 The sample holds actives, similar compounds and a random draw of the others, so the mix is not that of the screen.
Outcomes you can answer with include only these: active, inactive

// below: answered compounds
> print(dat)
                                   compound  class.label
1  Cc1ccc(OC(=O)N(C)C[C@@H]2OCc3cnnn3CCCC(=O)N([C@H](C)CO)C[C@@H]2C)cc1     inactive
2  COc1cc(C(c2c(O)c3ccccc3oc2=O)c2c(C)n(C)n(-c3ccccc3)c2=O)ccc1O (stereo not given)     inactive
3   CCCCCCN=C(CC)c1c(O)n(CCCC)c(=O)[nH]c1=O     inactive
4  COc1cccc(-c2nc3ccc(N4CCN(C)CC4)cc3[nH]2)c1       active
5         COc1ccc(-c2nn(CCC#N)cc2C(=O)O)cc1     inactive

GET /call?item= CNC(=O)Nc1ccc(C(O)(C(=O)OC)C(F)(F)F)cc1 (stereo not given) returns the recorded outcome of this test. inactive

GET /call?item= O=C(Nc1cccc2ccccc12)N1CCC2(CC1)OCCO2 returns the recorded outcome of this test. inactive

GET /call?item= CCn1cc(CN2CCCC(C(=O)c3cccc(C(F)(F)F)c3)C2)cn1 (stereo not given) returns the recorded outcome of this test. inactive

GET /call?item= CC(C)c1ccc(OCC(=O)N2CCCN(C)CC2)cc1 returns the recorded outcome of this test. inactive

GET /call?item= CCN1c2nc3c(C)cccn3c(=O)c2CC2(C(=O)N(C)C(=O)N(C)C2=O)C1C (stereo not given) returns the recorded outcome of this test. inactive

Reference for the values: PubChem BioAssay AID1347056
